target: UniProt Q92769
Sequence (Q92769 whole entry): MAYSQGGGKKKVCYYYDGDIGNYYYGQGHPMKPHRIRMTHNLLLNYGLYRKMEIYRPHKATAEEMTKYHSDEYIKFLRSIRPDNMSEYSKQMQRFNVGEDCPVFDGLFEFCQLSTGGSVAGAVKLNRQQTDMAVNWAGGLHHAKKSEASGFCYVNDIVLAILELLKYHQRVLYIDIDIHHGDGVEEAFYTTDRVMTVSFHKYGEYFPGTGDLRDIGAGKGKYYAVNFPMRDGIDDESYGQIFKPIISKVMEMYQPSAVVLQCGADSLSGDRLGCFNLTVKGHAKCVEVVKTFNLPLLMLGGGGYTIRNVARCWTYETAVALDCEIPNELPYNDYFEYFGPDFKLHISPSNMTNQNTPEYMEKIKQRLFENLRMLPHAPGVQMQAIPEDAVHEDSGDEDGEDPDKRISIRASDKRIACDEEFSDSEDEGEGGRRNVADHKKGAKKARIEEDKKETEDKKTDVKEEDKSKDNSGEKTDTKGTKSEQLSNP
protocol_notes: Inhibition of recombinant human HDAC2 using p53 (Ac-RHKK(Acetyl)-AMC) as substrate preincubated for 5 mins followed by substrate addition and measured after 30 mins by fluorescence based analysis
quantity_name: IC50 (nM)
The response must be a number in nM with no trailing unit.

{"columns": ["chemical_smiles", "target", "reading"],
 "data": [
  ["CCCCCCNNC(=O)c1cnc(NCc2ccccc2)nc1", "UniProt Q92769", 3200],
  ["CCCCCCNNC(=O)c1ccc(CNC(C)=O)cc1", "UniProt Q92769", 12000],
  ["CCCNNC(=O)c1cnc(NCc2ccccc2)nc1", "UniProt Q92769", 700],
  ["CCCCCCNNC(=O)c1cnc(N2CCN(CCc3cn(C)c4ccccc34)CC2)nc1", "UniProt Q92769", 1200],
  ["CCCNNC(=O)c1ccc(-c2ccc(CNC(C)=O)cc2)cc1", "UniProt Q92769", 630]
]}

Reported IC50 of `CCCNNC(=O)c1ccc(CNC(C)=O)cc1` : 5500

// recorded IC50 for `CCCCCNNC(=O)c1ccc(-c2ccc(CNC(C)=O)cc2)cc1` : 2000

FYI, the data here is from ChEMBL document CHEMBL5150060.
